The measurements presented in this section are drawn from PubChem BioAssay AID1159580.

- Assay Comment: chemical genetic growth profiling, strain panel (AID 1159580);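 also: tested at 20 µM; growth read once vehicle control cultures reached saturation at 30 °C; 1 = growth at the plate median or of vehicle wells; lower values mean less growth of the strain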
- Conditions: S. cerevisiae deletion strains, growth OD, locus YOR106W, strain vam3, hits give low values
Out of some 5,500 compounds screened, about 2,000 (36%) were called active. Inconclusive results (about 18%) are left out. The list shows a part of the results.
Some compounds, each annotated with its measured normalized growth.

Use the examples below as a reference point.
CCC(C)(C)C(=O)O[C@H]1C[C@@H](C)C=C2C=C[C@H](C)[C@H](CC[C@@H]3C[C@@H](O)CC(=O)O3)[C@H]21 :: 0.931 (inactive)
N[C@@H](CC(=O)N1CCn2c(nnc2C(F)(F)F)C1)Cc1cc(F)c(F)cc1F :: 0.994 (inactive)
CCCCCCCCCCCCCCCC(=O)OC1C(SC)OC(C(NC(=O)C2CC(CCC)CN2C)C(C)Cl)C(O)C1O (stereo not given) :: 0.973 (inactive)
Cc1c(Cl)cccc1Nc1ccccc1C(=O)O :: 0.745 (active)

Please find the next compound below.
# input Which normalized growth value belongs to `CC(=O)Oc1c(C)cccc1C(=O)O` ?
# output 1.01 (inactive)

====

Some compounds, each annotated with its measured normalized growth.
- Assay Comment: chemical genetic growth profiling, strain panel (AID 1159580);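 also: tested at 20 µM; growth read once vehicle control cultures reached saturation at 30 °C; 1 = growth at the plate median or of vehicle wells; lower values mean less growth of the strain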
- Conditions: S. cerevisiae deletion strains, growth OD, locus YOR083W, strain WHI5 (second series), hits give low values
Out of some 5,500 compounds screened, about 2,000 (36%) were called active. About 18% were inconclusive and are not listed. The list shows a part of the results.
Enter a number only.

Use the examples below as a reference point.
NC(CO)C(=O)NNCc1ccc(O)c(O)c1O (stereo not given) :: 0.978
N[C@H](CO)C(=O)O :: 0.996
OC(CN1CCC(Cc2ccc(F)cc2)CC1)c1ccc(Cl)cc1 (stereo not given) :: 1.05
CO/N=C(/C(=O)N[C@@H]1C(=O)N2C(C(=O)O)=C(COC(C)=O)CS[C@H]12)c1csc(N)n1 :: 0.978
CCN1C[C@]2(C)CC[C@H](O)[C@@]34C5C[C@@H]6[C@@H](OC)C[C@@](O)(C5[C@H]6O)[C@@H](CC23)C14 (stereo not given in full) :: 1.01

# input Which normalized growth value belongs to `Cc1cccc(C)c1NC1=NCCCS1` ?
# output 0.998

# input Which normalized growth value belongs to `CC[N+](CC)(CC)CCOc1cccc(OCC[N+](CC)(CC)CC)c1OCC[N+](CC)(CC)CC` ?
# output 0.998

# input Which normalized growth value belongs to CC(/C=C/c1cccc(Oc2ccc(F)cc2)c1)N(O)C(N)=O (stereo not given) ?
# output 0.966

# input Which normalized growth value belongs to `CN1C(C(=O)Nc2ccccn2)=C(O)c2ccccc2S1(=O)=O` ?
# output 0.99

# input Which normalized growth value belongs to CO/N=C(/C(=O)N[C@@H]1C(=O)N2C(C(=O)O)=C(CSc3nc(=O)c(O)nn3C)CSC12)c1csc(N)n1 (stereo not given in full) ?
# output 1

====

- Assay Comment: chemical genetic growth profiling, strain panel (AID 1159580);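 also: tested at 20 µM; growth read once vehicle control cultures reached saturation at 30 °C; 1 = growth at the plate median or of vehicle wells; lower values mean less growth of the strain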
- Conditions: S. cerevisiae deletion strains, growth OD, locus YGL253W, strain hxk2
Among all 5,500 compounds or so, about 2,000 (36%) were called active. Inconclusive results (about 18%) are left out. Rule as the data show it: active = normalized growth mostly below about 0.91 (no sharp cut-off); inconclusive = no clear call, values can overlap the other calls; inactive = mostly above about 0.92. The list shows a part of the results.
Could you please pick one outcome from this set? active, inactive

O=C1OC(c2ccc(O)cc2)(c2ccc(O)cc2)c2ccccc21 :: inactive

# input Entry `CC(=O)OCC[C@H](C)CCC=C(C)C` : call = ?
# output inactive
